Data provenance is patent US9302999B2.

- Test system: large crabgrass (Digitaria sanguinalis)
- assay-name: Test C pre-/postemergence: large crabgrass
- Type: in vivo
- details: Preemergence, 31 g ai/ha; scale of 0 to 100, 0 is no effect, 100 is complete control
# reported Plant response rating, Crabgrass, Large; entries follow
property-name: Plant response rating, Crabgrass, Large

* Cc1nn(-c2ccc(F)c(F)c2)nc1Oc1ccnc(C(F)(F)F)c1 [Compound 145] | 98
* Cc1nn(-c2ccc(F)cc2)nc1Oc1ccnc(C(F)(F)F)c1 [Compound 129] | 98
* CCCc1nn(-c2ccc(F)cc2)nc1Cc1ccnc(C(F)(F)F)c1 [Compound 153] | 100
* Cc1nn(-c2ccc(F)c(C(F)(F)F)c2)nc1Oc1ccnc(C(F)(F)F)c1 [Compound 147] | 98
